- test details: Acute toxicity in rats
- Parameters: species or system rat (ICL-SD strain)
- assay conditions: rat, in vivo, iv, male, i.v., 7 days observation, read-out: LD50 i.v.
measure name: LD50 at 168 h

molecule	measure name	assay value
CO/N=C(\C(=O)NC1C(=O)N2C(C(=O)O)=CCSC12)c1csc(N)n1 (stereo not shown) [Compound 1]	LD50 at 168 h	~8000 mg/kg

---

- test details: Acute toxicity in rats
- Design: species or system rat (ICL-SD strain)
- assay conditions: rat, in vivo, iv, female, i.v., 7 days observation, read-out: LD50 i.v.

compound	LD50 at 168 h
CO/N=C(\C(=O)NC1C(=O)N2C(C(=O)O)=CCSC12)c1csc(N)n1 (stereo not shown)	> 8000 mg/kg

---

- test details: Acute toxicity in rats
- Design: species or system rat (ICL-SD strain)
- assay conditions: rat, in vivo, sc, male, s.c., 7 days observation, read-out: LD50 s.c.

molecule	LD50 at 168 h
CO/N=C(\C(=O)NC1C(=O)N2C(C(=O)O)=CCSC12)c1csc(N)n1 (stereo not shown) [Compound 1]	> 8000 mg/kg
